Biological target: human FGFR1c together with human beta-Klotho (KLB), stably expressed on CHO Flp-In cells (human), P11362
Sequence (P11362 22-822, chain 1 of 2): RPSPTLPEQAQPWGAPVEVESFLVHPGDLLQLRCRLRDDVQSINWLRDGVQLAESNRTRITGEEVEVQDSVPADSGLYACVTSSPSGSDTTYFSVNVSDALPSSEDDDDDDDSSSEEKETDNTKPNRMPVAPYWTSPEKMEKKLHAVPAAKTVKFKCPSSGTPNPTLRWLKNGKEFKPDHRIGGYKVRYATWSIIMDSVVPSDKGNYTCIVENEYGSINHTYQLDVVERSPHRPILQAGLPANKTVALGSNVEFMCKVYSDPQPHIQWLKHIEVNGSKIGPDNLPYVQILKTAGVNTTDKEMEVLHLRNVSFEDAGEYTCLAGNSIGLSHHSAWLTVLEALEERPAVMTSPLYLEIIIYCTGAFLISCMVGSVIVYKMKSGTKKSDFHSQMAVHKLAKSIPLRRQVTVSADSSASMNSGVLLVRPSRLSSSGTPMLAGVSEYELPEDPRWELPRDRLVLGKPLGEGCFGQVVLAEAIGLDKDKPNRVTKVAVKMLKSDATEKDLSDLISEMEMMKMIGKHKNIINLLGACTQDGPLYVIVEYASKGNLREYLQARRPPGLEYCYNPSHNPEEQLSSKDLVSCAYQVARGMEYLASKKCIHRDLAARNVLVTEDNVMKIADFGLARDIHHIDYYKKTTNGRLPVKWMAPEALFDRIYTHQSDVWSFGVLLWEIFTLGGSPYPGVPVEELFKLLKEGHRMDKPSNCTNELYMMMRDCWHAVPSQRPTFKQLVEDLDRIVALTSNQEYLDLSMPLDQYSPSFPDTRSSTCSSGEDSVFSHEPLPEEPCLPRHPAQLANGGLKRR
Sequence (Q86Z14 whole entry, chain 2 of 2, further chain): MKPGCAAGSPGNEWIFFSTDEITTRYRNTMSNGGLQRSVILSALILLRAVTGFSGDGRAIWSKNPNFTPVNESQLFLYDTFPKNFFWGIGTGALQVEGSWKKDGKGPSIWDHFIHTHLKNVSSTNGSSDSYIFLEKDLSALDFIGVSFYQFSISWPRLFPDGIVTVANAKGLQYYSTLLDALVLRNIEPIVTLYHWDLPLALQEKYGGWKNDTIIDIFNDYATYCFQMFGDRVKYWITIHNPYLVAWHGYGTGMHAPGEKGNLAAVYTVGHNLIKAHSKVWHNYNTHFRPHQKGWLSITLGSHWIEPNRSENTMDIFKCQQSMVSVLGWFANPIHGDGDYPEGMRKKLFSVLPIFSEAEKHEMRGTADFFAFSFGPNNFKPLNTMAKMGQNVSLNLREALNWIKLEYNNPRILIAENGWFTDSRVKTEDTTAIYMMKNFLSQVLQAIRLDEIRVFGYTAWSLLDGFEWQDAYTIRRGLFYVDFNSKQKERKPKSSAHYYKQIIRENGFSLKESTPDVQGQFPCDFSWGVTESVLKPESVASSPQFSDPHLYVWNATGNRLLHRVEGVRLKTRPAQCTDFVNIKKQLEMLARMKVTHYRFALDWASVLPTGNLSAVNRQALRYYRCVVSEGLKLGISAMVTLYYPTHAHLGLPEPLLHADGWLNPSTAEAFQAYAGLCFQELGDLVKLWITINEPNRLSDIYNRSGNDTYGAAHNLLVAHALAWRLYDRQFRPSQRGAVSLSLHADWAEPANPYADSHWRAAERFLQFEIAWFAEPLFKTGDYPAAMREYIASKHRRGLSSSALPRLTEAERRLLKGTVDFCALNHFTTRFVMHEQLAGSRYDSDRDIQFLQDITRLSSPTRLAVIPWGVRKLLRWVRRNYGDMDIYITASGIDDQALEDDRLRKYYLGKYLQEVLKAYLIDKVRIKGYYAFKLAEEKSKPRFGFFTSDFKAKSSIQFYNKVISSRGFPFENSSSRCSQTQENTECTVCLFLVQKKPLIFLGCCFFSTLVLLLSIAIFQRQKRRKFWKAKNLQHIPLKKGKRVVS
Test: cell-based or functional assay
measurement_type: pERK ICW EC50 (nmol/L)
Dear colleague, please return just the value in nmol/L, with no unit written.

FGF21 N149-R163 deleted and replaced by GSGS (SEQ ID NO: 136), Q9NSA1 29-209 (ligand) GHPIPDSSPLLQFGGQVRQRYLYTDDAQQTEAHLEIREDGTVGGAADQSPESLLQLKALKPGVIQILGVKTSRFLCQRPDGALYGSLHFDPEACSFRELLLEDGYNVYQSEAHGLPLHLPGGSGSFLPLPGLPPAPPEPPGILAPQPPDVGSSDPLSMVGPSQGRSPSYAS; 3.69

Request: I have this binder here, FGF21 G202T (SEQ ID NO: 154), Q9NSA1 29-209 (ligand) GHPIPDSSPLLQFGGQVRQRYLYTDDAQQTEAHLEIREDGTVGGAADQSPESLLQLKALKPGVIQILGVKTSRFLCQRPDGALYGSLHFDPEACSFRELLLEDGYNVYQSEAHGLPLHLPGNKSPHRDPAPRGPARFLPLPGLPPAPPEPPGILAPQPPDVGSSDPLSMVGPSQTRSPSYAS , and I need its recorded pERK ICW EC50.
Result: 0.01
